# credit: patent USRE47785E1

Protocol text: Test of solubility in water
Condition: water, SOLUBILITY
Quantity: SOLUBILITY

COc1c(N2C[C@H](CNC3CC3)[C@H](F)C2)c(F)cc2c(=O)c(C(=O)O)cn(CCF)c12.CS(=O)(=O)O [CRYSTALS OF METHANESULFONATE SALT] yielded SOLUBILITY of ≥ 10000 µg/mL

COc1c(N2C[C@H](CNC3CC3)[C@H](F)C2)c(F)cc2c(=O)c(C(=O)O)cn(CCF)c12 [FREE CRYSTALS] yielded SOLUBILITY of ≤ 1000 µg/mL
